# Test system: Caco-2
# Experiment Summary: cell viability relative to DMSO; higher = less toxic
# Test Parameters: 72 h; 1000 nM
Label Met when cell viability < 90%; otherwise Not met.

Compound: O=C(N[C@@H]1Cc2ccccc2N(C[C@@H](O)CO)C1=O)c1cc2cc(Cl)sc2[nH]1 [GPi-688]
Label Class: Not met
--
Compound: COc1cc2c(cc1OC)[C@@H]1Cc3ccc(OC)c(OC)c3CN1CC2 [rotundine]
Label Class: Not met
--
Compound: CN1C(CCl)Nc2cc(Cl)c(S(N)(=O)=O)cc2S1(=O)=O (stereo not drawn) [methyclothiazide]
Label Class: Not met
--
Compound: CCCN(CCC)CCc1cccc2c1CC(=O)N2 [ropinirole]
Label Class: Not met

# next compound below
Problem: For the compound COc1cc(-c2ncn(/C=C\C(=O)OC(C)C)n2)cc(C(F)(F)F)c1 [KPT-185] , is cell viability under 90%?
Met
